- assayTarget: pTyr-containing peptide (pEZ) derived from Ezrin, PPV{pTyr}EPVS
- protocolDetails: phage ELISA, phage-displayed clone on immobilized peptide
measuredParameter: binding signal for pEZ over that for the unphosphorylated peptide EZ (fold)
The answer is to be given in fold; state only the numeric part.

Give the reported binding signal for pEZ over that for the unphosphorylated peptide EZ for this binder. sFes^3, superbinder Fes SH2 domain variant (designed binder) MKIEEHHHHHHSSGKLGLNDIFEAQKIEWHESSGEDLYFQSGTTMDDYKDDDDKGGSEVQKPLHEQLWYHGAIPRAEVAELLVHSGDFLVRESPRIQEYVLSVLWDGLPRHFIIQSLDNLYRLEGEGFPSIPLLIDHLLSTQQPLTKKSGVVLHRAVPSR
10

Given the binder sFes^6, superbinder Fes SH2 domain variant (designed binder) MKIEEHHHHHHSSGKLGLNDIFEAQKIEWHESSGEDLYFQSGTTMDDYKDDDDKGGSEVQKPLHEQLWYHGAIPRAEVAELLVHSGDFIVRESQTYPGYVLSVLWDGLPRHFIIQSLDNLYRLEGEGFPSIPLLIDHLLSTQQPLTKKSGVVLHRAVPSR , write its reported binding signal for pEZ over that for the unphosphorylated peptide EZ.
10

Given sFes^2, superbinder Fes SH2 domain variant (designed binder) MKIEEHHHHHHSSGKLGLNDIFEAQKIEWHESSGEDLYFQSGTTMDDYKDDDDKGGSEVQKPLHEQLWYHGAIPRAEVAELLVHSGDFLVRERQRKQEYVLSVLWDGLPRHFIIQSLDNLYRLEGEGFPSIPLLIDHLLSTQQPLTKKSGVVLHRAVPSR , respond with its binding signal for pEZ over that for the unphosphorylated peptide EZ.
10
